Molecular target: Vibrio cholerae neuraminidase (Vibrio cholerae serotype O1)
Sequence (P0C6E9 25-781 limits assumed): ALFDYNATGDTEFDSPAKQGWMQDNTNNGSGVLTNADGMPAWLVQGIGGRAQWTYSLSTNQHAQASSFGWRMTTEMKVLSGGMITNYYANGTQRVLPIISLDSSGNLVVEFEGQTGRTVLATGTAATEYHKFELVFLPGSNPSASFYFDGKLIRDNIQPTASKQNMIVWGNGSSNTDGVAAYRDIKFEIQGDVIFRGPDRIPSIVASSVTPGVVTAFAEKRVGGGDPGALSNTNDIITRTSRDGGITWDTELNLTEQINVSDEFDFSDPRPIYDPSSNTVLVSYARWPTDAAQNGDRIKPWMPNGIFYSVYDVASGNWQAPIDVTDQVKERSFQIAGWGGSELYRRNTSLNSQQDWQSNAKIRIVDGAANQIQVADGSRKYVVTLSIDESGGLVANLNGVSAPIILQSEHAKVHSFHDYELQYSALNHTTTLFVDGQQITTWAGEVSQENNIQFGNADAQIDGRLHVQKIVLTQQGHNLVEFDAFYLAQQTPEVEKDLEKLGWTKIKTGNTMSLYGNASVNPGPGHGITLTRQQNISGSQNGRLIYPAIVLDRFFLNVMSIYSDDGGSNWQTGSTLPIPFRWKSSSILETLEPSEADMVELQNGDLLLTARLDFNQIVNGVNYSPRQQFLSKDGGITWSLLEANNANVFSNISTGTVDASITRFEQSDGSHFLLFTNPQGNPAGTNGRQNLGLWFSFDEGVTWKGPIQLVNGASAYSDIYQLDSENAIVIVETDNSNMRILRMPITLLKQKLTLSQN
pIC50: −log10 of the molar value.
MEASURED PROPERTY: pIC50

COMPOUND: CC(=O)NC1C(NC(=N)N)C=C(C(=O)O)OC1[C@H](OC(N)=O)[C@H](O)CO (some centres unmarked)
SYSTEM UNDER TEST: Vibrio cholerae neuraminidase (Vibrio cholerae serotype O1)
MEASURED PROPERTY: pIC50
RESULT OPERATOR: =
ASSAY RESULT: 3.60

COMPOUND: CC(=O)NC1C(NC(=N)N)C=C(C(=O)O)OC1[C@H](O)[C@H](O)CO (some centres unmarked)
SYSTEM UNDER TEST: Vibrio cholerae neuraminidase (Vibrio cholerae serotype O1)
MEASURED PROPERTY: pIC50
RESULT OPERATOR: =
ASSAY RESULT: 3.70

COMPOUND: CC(=O)NC1C(N)C=C(C(=O)O)OC1[C@H](O)[C@H](O)CO (some centres unmarked)
SYSTEM UNDER TEST: Vibrio cholerae neuraminidase (Vibrio cholerae serotype O1)
MEASURED PROPERTY: pIC50
RESULT OPERATOR: <
ASSAY RESULT: 2.70

COMPOUND: CC(=O)NC1C(O)CC(O)(C(=O)O)OC1[C@H](O)[C@H](O)CO (some centres unmarked)
SYSTEM UNDER TEST: Vibrio cholerae neuraminidase (Vibrio cholerae serotype O1)
MEASURED PROPERTY: pIC50
RESULT OPERATOR: <
ASSAY RESULT: 2.70

COMPOUND: CC1=NC2C(O)C=C(C(=O)O)OC2C(CC(=O)N[C@@H](C(N)=O)C2CCCCC2)O1 (some centres unmarked)
SYSTEM UNDER TEST: Vibrio cholerae neuraminidase (Vibrio cholerae serotype O1)
MEASURED PROPERTY: pIC50
RESULT OPERATOR: <
ASSAY RESULT: 2.70

---

Target: Clostridium perfringens neuraminidase
Conditions: pH 6.5; read-out: Solution phase IC50, Clostridium perfringens
pIC50: −log10 of the molar value.
MEASURED PROPERTY: pIC50

MOLECULE: CC(=O)NC1C(N)C=C(C(=O)O)OC1[C@H](O)[C@H](O)CO (some centres unmarked)
RESULT OPERATOR: <
ASSAY RESULT: 2.70
--
MOLECULE: CC(=O)NC1C(NC(=N)N)C=C(C(=O)O)OC1[C@H](OC(N)=O)[C@H](O)CO (some centres unmarked)
RESULT OPERATOR: <
ASSAY RESULT: 2.70
--
MOLECULE: CC(=O)NC1C(O)C=C(C(=O)O)OC1[C@H](O)[C@H](O)CO (some centres unmarked)
RESULT OPERATOR: =
ASSAY RESULT: 5.40
--
MOLECULE: CC(=O)NC1C(O)CC(O)(C(=O)O)OC1[C@H](O)[C@H](O)CO (some centres unmarked)
RESULT OPERATOR: <
ASSAY RESULT: 2.70
--
MOLECULE: CC1=NC2C(O)C=C(C(=O)O)OC2C(CC(=O)N[C@@H](C(N)=O)C2CCCCC2)O1 (some centres unmarked)
RESULT OPERATOR: =
ASSAY RESULT: 2.80

---

Molecular target: Salmonella typhimurium neuraminidase (Salmonella typhimurium, UniProt P29768)
Construct: purchased Sigma
Sequence (P29768 whole entry): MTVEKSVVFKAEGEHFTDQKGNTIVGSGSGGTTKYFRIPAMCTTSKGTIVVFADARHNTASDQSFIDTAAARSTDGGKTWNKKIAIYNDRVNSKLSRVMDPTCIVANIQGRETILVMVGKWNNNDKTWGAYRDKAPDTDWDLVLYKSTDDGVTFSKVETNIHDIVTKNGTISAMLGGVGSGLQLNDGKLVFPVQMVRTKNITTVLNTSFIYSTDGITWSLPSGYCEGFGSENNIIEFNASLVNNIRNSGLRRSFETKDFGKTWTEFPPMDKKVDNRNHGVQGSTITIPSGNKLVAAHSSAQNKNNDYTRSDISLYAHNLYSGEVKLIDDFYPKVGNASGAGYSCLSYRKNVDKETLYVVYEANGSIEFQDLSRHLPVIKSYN
Assay: biochemical
Type: biochemical
pIC50: −log10 of the molar value.
MEASURED PROPERTY: pIC50

COMPOUND: CC(=O)NC1C(NC(=N)N)C=C(C(=O)O)OC1[C@H](O)[C@H](O)CO (stereo partly drawn)
ASSAY RESULT: < 2.70
--
COMPOUND: CC(=O)NC1C(NC(=N)N)C=C(C(=O)O)OC1[C@H](OC(N)=O)[C@H](O)CO (stereo partly drawn)
ASSAY RESULT: < 2.70
--
COMPOUND: CC(=O)NC1C(N)C=C(C(=O)O)OC1[C@H](O)[C@H](O)CO (stereo partly drawn)
ASSAY RESULT: < 2.70
--
COMPOUND: CC(=O)NC1C(O)CC(O)(C(=O)O)OC1[C@H](O)[C@H](O)CO (stereo partly drawn)
ASSAY RESULT: < 2.70
--
COMPOUND: CC(=O)NC1C(O)C=C(C(=O)O)OC1[C@H](O)[C@H](O)CO (stereo partly drawn)
ASSAY RESULT: 3.51
--
COMPOUND: CC1=NC2C(O)C=C(C(=O)O)OC2C(CC(=O)N[C@@H](C(N)=O)C2CCCCC2)O1 (stereo partly drawn)
ASSAY RESULT: < 2.70
